Quick reference for PBM binding z-score among some sequences
Test system: PPARg DBDmut:RXRa IVT, anti-PPARg (DBD mutation: PPARg1 K132A/R137A, NR concentration 270 nM, RXRa partner concentration 90 nM)
Test: PBM binding z-score (relative to random genomic background probes); higher = stronger binding; sequences stand for … in GC…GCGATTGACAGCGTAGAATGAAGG
observation.type: PBM binding z-score

>>> df
                     residue_sequence  recorded_measurement
0  AGAATTAGGTTATTAAGATCAGGGAATTGCGGTC                  1.55
1  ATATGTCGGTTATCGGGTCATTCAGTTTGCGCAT                  1.98
2  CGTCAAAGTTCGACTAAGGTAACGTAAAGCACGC               -0.0779
